Listed here: compounds with reported IC50 for AChE (Electrophorus electricus, UniProt O42275).
readout_kind: IC50 (µM)

compound | readout_kind | unit_text | comparator | recorded_value
Cc1ccc(C)n1C(Cc1ccc(O)cc1)C(=O)O (stereo not drawn) | IC50 | µM | > | 200
Cc1ccc(C)n1CC(O)c1ccc(O)cc1 (stereo not drawn) | IC50 | µM | = | 148
Cc1ccc(C)n1CCc1ccc(O)cc1 | IC50 | µM | = | 76.8
Cc1ccc(C)n1C(Cc1cnc[nH]1)C(=O)O (stereo not drawn) | IC50 | µM | = | 76.2
Cc1ccc(C)n1C1CCN(Cc2ccccc2)CC1 | IC50 | µM | = | 87.2
Cc1ccc(C)n1CCN1CCOCC1 | IC50 | µM | = | 11.8
Cc1ccc(C)n1-c1ccc(C(=O)NCC(=O)O)cc1 | IC50 | µM | > | 200
Cc1ccc(C)n1-c1ccc(O)c(C(=O)O)c1 | IC50 | µM | > | 200
Cc1ccc(C)n1CCc1ccccc1 | IC50 | µM | > | 200
Cc1ccc(C)n1-c1ccncc1 | IC50 | µM | = | 103
COc1ccc(C)cc1-n1c(C)ccc1C | IC50 | µM | > | 200
Cc1ccc(C)n1-c1ccc2c(c1)OCO2 | IC50 | µM | = | 128
Cc1ccc(C)n1-c1ccc(O)cc1 | IC50 | µM | > | 200
Cc1ccc(C)n1-c1ccc(CC(=O)O)cc1 | IC50 | µM | > | 200
CCC(C)Cn1c(C)ccc1C (stereo not drawn) | IC50 | µM | > | 200
Cc1cc(-n2c(C)ccc2C)c2ccccc2n1 | IC50 | µM | = | 3.81
Cc1ccc(C)n1C(CS)C(=O)O (stereo not drawn) | IC50 | µM | = | 131
Cc1ccc(C)n1-c1ccc(Br)cc1 | IC50 | µM | > | 200
Cc1ccc(C)n1-c1ccc(C(=O)O)cc1 | IC50 | µM | = | 0.75
Cc1ccc(C)n1C(CO)C(=O)O (stereo not drawn) | IC50 | µM | > | 200
Cc1ccc(C)n1C(Cc1ccc(O)c(O)c1)C(=O)O (stereo not drawn) | IC50 | µM | > | 200
CCC(C(=O)O)n1c(C)ccc1C (stereo not drawn) | IC50 | µM | > | 200
Cc1ccc(C)n1CC(C)c1ccc(O)cc1 (stereo not drawn) | IC50 | µM | > | 200
Cc1ccc(C)n1CCc1ccc(Cl)cc1 | IC50 | µM | > | 200
